Organism: Rattus norvegicus
Assay: Open TG-GATES - Regimen: Daily Repeat
Format: toxicity, organism-based, Sprague-Dawley
Parameters: regimen Daily Repeat, gender Male, age 6 weeks
Settings: in vivo, po, 0 mg/kg, […], tissue Plasma, route gavage, dose level Control, time 28 day

compound: CCc1oc2ccccc2c1C(=O)c1cc(I)c(O)c(I)c1
TC: 58 mg/dL
//
compound: CCSCC[C@H](N)C(=O)O
TC: 72 mg/dL
//
compound: O=C(N[C@H](CO)[C@H](O)c1ccc([N+](=O)[O-])cc1)C(Cl)Cl
TC: 66 mg/dL
//
compound: CN1C(=O)OC(C)(C)C1=O
TC: 73.6 mg/dL
//
compound: CC(=O)Oc1cc(C(C)C)c(OCCN(C)C)cc1C
TC: 64.5 mg/dL
//
compound: C#C[C@]1(O)CC[C@H]2[C@@H]3CCc4cc(O)ccc4[C@H]3CC[C@@]21C
TC: 80.4 mg/dL
//
compound: CCN1CCCC1CNC(=O)c1cc(S(N)(=O)=O)ccc1OC (stereo unspecified) [SULPIRIDE]
TC: 66.4 mg/dL
//
compound: Oc1ncnc2[nH]ncc12
TC: 67.2 mg/dL
//
compound: Nc1nc(N)c2nc(-c3ccccc3)c(N)nc2n1
TC: 68.2 mg/dL
//
compound: CC(=N)S [THIOACETAMIDE]
TC: 83 mg/dL
//
compound: O=C(O)c1cccnc1
TC: 76.6 mg/dL

====

Organism: Rattus norvegicus
Assay: Open TG-GATES - Regimen: Daily Repeat
Format: toxicity, organism-based, Sprague-Dawley
Set-up: regimen Daily Repeat, gender Male, age 6 weeks
Settings: in vivo, po, 1000 mg/kg, […], tissue Blood, route gavage, dose level High, time 14 day
Lym listing for selected molecules.

molecule: CC(C)(S)[C@@H](N)C(=O)O [PENICILLAMINE]
Lym: 82.6%
--
molecule: O=C(N[C@H](CO)[C@H](O)c1ccc([N+](=O)[O-])cc1)C(Cl)Cl [CHLORAMPHENICOL]
Lym: 87.2%
--
molecule: CCN1CCCC1CNC(=O)c1cc(S(N)(=O)=O)ccc1OC (centres undefined) [SULPIRIDE]
Lym: 72.8%
--
molecule: O=C(O)c1cccnc1 [NIACIN]
Lym: 75.2%

====

Species on record: Rattus norvegicus
Assay: Open TG-GATES - Regimen: Daily Repeat
Type: toxicity, organism-based, Sprague-Dawley
Parameters: regimen Daily Repeat, gender Male, age 6 weeks
Conditions: in vivo, po, 0 mg/kg, […], tissue Plasma, route gavage, dose level Control, time 14 day

compound: Nc1nc(N)c2nc(-c3ccccc3)c(N)nc2n1
TBIL: 0.068 mg/dL
--
compound: C#C[C@]1(O)CC[C@H]2[C@@H]3CCc4cc(O)ccc4[C@H]3CC[C@@]21C
TBIL: 0.07 mg/dL
--
compound: CCc1oc2ccccc2c1C(=O)c1cc(I)c(O)c(I)c1
TBIL: 0.3 mg/dL
--
compound: O=C(O)c1cccnc1
TBIL: 0.006 mg/dL
--
compound: CC(C)(S)[C@@H](N)C(=O)O
TBIL: 0.024 mg/dL
--
compound: C[C@]12CCC(=O)C=C1CC[C@@H]1[C@@H]2CC[C@@]2(C)[C@H]1CC[C@]2(C)O
TBIL: 0.032 mg/dL
--
compound: O=C(N[C@H](CO)[C@H](O)c1ccc([N+](=O)[O-])cc1)C(Cl)Cl
TBIL: 0.05 mg/dL
--
compound: CC(=N)S [THIOACETAMIDE]
TBIL: 0.3 mg/dL
--
compound: C[C@](N)(Cc1ccc(O)c(O)c1)C(=O)O
TBIL: 0.058 mg/dL
--
compound: CN1C(=O)OC(C)(C)C1=O
TBIL: 0.042 mg/dL
--
compound: CC(=O)Oc1cc(C(C)C)c(OCCN(C)C)cc1C
TBIL: 0.008 mg/dL

Value source: ChEMBL document CHEMBL3885861
